tested on: OVCAR-3 ovarian; assay: NCI tumour cell line growth inhibition, 48 h
Overview of reported TGI across a group of compounds:

[
  {
    "COMPOUND": "COc1ccc(C2(CC(C)O)SCCCS2)cc1 (stereo unspecified)",
    "TGI": "> 100 µM"
  },
  {
    "COMPOUND": "CC(=O)OCC1OC(n2cc([N+](=O)[O-])c(=O)[nH]c2=O)C(OC(C)=O)C(OC(C)=O)C1OC(C)=O (stereo unspecified)",
    "TGI": "> 100 µM"
  },
  {
    "COMPOUND": "Clc1ccc(-c2nn3c(-c4ccncc4)nnc3s2)cc1",
    "TGI": "> 100 µM"
  },
  {
    "COMPOUND": "COc1ccc2cc3c4cc5c(cc4cc[n+]3cc2c1OC)OCO5",
    "TGI": "21.4 µM"
  },
  {
    "COMPOUND": "COC1OC(C)C(OCc2ccccc2)C(OS(=O)(=O)c2ccc(C)cc2)C1OS(=O)(=O)c1ccc(C)cc1 (stereo unspecified)",
    "TGI": "> 100 µM"
  }
]

Request: Query (compound): COc1ccc(CC(O)CN2CCOCC2)cc1 (stereo unspecified) ; field requested: TGI
Response: > 100 µM

Request: Next compound up: C=CCC1[C@@H](C(C)(C)C(C(C)=O)C(=O)C(=O)OC)OC(C(C)(C)C)N1C(=O)OC (stereo partly specified)
Response: > 100 µM

Request: Likewise for C=CC[C@]12C[C@@H](C(=O)OC)N(C(=O)OC)[C@H]1N(S(=O)(=O)c1ccccc1)c1ccccc12 ?
Response: > 100 µM

Request: Moving on to N=S(c1ccccc1)c1ccccc1[N+](=O)[O-] (stereo unspecified)
Response: 23.2 µM

Request: For NC(N)=NS(=O)(=O)c1ccc(NC(=O)c2cccc3c(Nc4ccc(S(N)(=O)=O)cc4)c4ccccc4nc23)cc1 then?
Response: > 100 µM

Request: Another: COCCOCCOCc1n(Cc2ccc3ccccc3n2)c2ccccc2[n+]1Cc1ccc2ccccc2c1
Response: 1.52 µM

Request: Would you mind doing C=C[C@@H]1C(CO)=CCC2[C@H]1CCC1C(C)(C)C(=O)CC[C@]21C (stereo partly specified) as well?
Response: > 100 µM

Request: Again, but for Cc1ccccc1C(O)(c1nccn1C)c1nccn1C
Response: > 100 µM

Request: Okay, and COc1ccc2nc3cc(Cl)ccc3c(NCCCNCCCNc3c4ccc(Cl)cc4nc4ccc(OC)cc34)c2c1 ?
Response: 0.61 µM

Request: Also check CC1(C)N=C(C(N)=O)c2ncn(CCCO)c2N1
Response: > 100 µM

Request: Try this compound next: CCOC(=O)NC(=S)NN(C)C1=NCC(C)(C)S1
Response: > 100 µM

Request: Similarly, COc1cc(C2CC(C)(Nc3ccccc3)Oc3cc4c(cc32)OCO4)cc(OC)c1OC (stereo unspecified) ?
Response: 3.52 µM

Request: Let us now turn to CCCCC1c2c([nH]c3ccccc23)C2C(=O)N(c3ccc(OC)cc3)C(=O)C2C1CCC (stereo unspecified)
Response: 6.26 µM

Request: Would you kindly repeat that for O=C1C[C@H](Sc2ccccc2)C2(OCCO2)[C@@H](Sc2ccccc2)C1 ?
Response: 7.94 µM

Request: One more compound: O=P(c1ccccc1)(c1ccccc1)N1O[C@@H](c2ccccc2)C=C[C@H]1c1ccccc1
Response: 27.8 µM

Request: What about O=C(NC12CC3CC(CC(C3)C1)C2)C(=O)c1c[nH]c2ccc(Cl)cc12 ?
Response: 57.6 µM

Request: Also OB1OCc2cc(/C=C/c3cccc(C(F)(F)F)c3)ccc21 , if possible.
Response: 17.8 µM

Request: Could you do the same for O=C/C(=C(/Cl)c1ccc(O)cc1)c1ccccc1 , please?
Response: 37.5 µM

Request: Same thing, different compound: Nc1c(-c2cccc3ccccc23)c2ccc([N+](=O)[O-])cc2c(=O)n1-c1nc2ccccc2s1
Response: > 37 µM

Request: And then NC(=O)c1cccc(Nc2nccc(Nc3cccc(F)c3)n2)c1 , what is it?
Response: > 25 µM

Request: Try the compound O=c1cc(N=P(c2ccccc2)(c2ccccc2)c2ccccc2)n(-c2ccccc2)c(=O)n1-c1ccccc1
Response: 32.3 µM

Request: Try this compound too: CC(C(=O)n1nnc2ccccc21)N(c1ccccc1)c1ccccc1 (stereo unspecified)
Response: > 100 µM

---

test system: SK-MEL-5 melanoma; assay: NCI tumour cell line growth inhibition, 48 h
ASSAY_ENDPOINT: GI50

Reference set, count: 3
[
  {
    "COMPOUND_STRUCTURE": "CC(=O)N[C@H](C(=O)N[C@@H](CCCNC(=N)N)C(=O)N[C@@H](CCCCN)C(=O)N[C@@H](CCCNC(=N)N)C(=O)N[C@]1(C)CCCCCC/C=C\\CCC[C@@](C)(C(=O)N[C@@H](CCCNC(=N)N)C(=O)N[C@@H](CCC(=O)O)C(=O)N[C@@H](CC(C)C)C(=O)N[C@H](C(=O)N[C@@H](CCC(=O)O)C(N)=O)C(C)C)NC(=O)[C@H](CCC(N)=O)NC(=O)[C@H](CC(C)C)NC(=O)[C@H](CC(C)C)NC(=O)[C@H](CCCNC(=N)N)NC(=O)[C@H](CCCNC(=N)N)NC(=O)[C@H](CC(C)C)NC1=O)C(C)C",
    "GI50": "1100 nM"
  },
  {
    "COMPOUND_STRUCTURE": "C[C@H]1[C@H](C)CC[C@]2(C(=O)NCCNCCN)CC[C@]3(C)C(=CC[C@@H]4[C@@]5(C)CCC(=O)C(C)(C)[C@@H]5CC[C@]43C)[C@H]12",
    "GI50": "1800 nM"
  },
  {
    "COMPOUND_STRUCTURE": "CCSc1nc(N)c2cn[nH]c2n1",
    "GI50": "18500 nM"
  }
]

Request: Sample Cc1ncc(C(=O)Nc2ccc(CN3CCN(C)CC3)c(C(F)(F)F)c2)cc1C#Cc1cnc(NC2CC2)c2ncccc12 — what was its GI50?
Response: 546 nM

Request: Then Cn1c([N+](=O)[O-])cnc1/C=C1\Oc2cc(Cl)ccc2C1=O ?
Response: 289 nM

---

test system: SK-MEL-2 melanoma; assay: NCI tumour cell line growth inhibition, 48 h
Parameter: TGI. Scope: all listed entries.
Unit µM implied. Number only.

Request: Value lookup for TGI; key = CC(C)c1ccccc1NC(=O)/C(Cl)=C1/Sc2ccccc2NC1=O
Response: 37.8

Request: Same question for CNC(=O)c1cc2c(Oc3ccc(NC(=O)C4(C(=O)Nc5ccc(F)cc5)CC4)cc3)ccnc2cc1OC please.
Response: 5.92

Request: Do the same for COc1nc(C#CCC(C)O)nc(OC)n1 (stereo unspecified) please
Response: 87.3

Request: Now this one: N=S(c1ccccc1)c1ccccc1[N+](=O)[O-] (stereo unspecified)
Response: 67.7

Request: Now consider O=C(NC12CC3CC(CC(C3)C1)C2)C(=O)c1c[nH]c2ccc(Cl)cc12 and answer again.
Response: 89.4

Request: Now give it for Cc1nnc(N/N=C(/C(=O)C(C#N)c2ccccc2)C(C#N)c2ccccc2)n1N (stereo unspecified) too.
Response: 12.5

Request: Now the same for Brc1cccc(Nc2nc(-c3cccs3)nc3ccc(Br)cc23)c1
Response: 94.5

---

system: SNB-75 CNS; test: NCI tumour cell line growth inhibition, 48 h
ASSAY_ENDPOINT: TGI

Past entries and their recorded results:
[
  {
    "COMPOUND": "O=C(NC(Cc1ccc(I)cc1)C(=O)O)c1ccc(I)cc1 (stereo not given)",
    "TARGET_UNDER_TEST": "SNB-75 CNS",
    "ASSAY_ENDPOINT": "TGI",
    "ASSAY_RESULT": "> 100 µM"
  },
  {
    "COMPOUND": "COC1OC(C)C(OCc2ccccc2)C(OS(=O)(=O)c2ccc(C)cc2)C1OS(=O)(=O)c1ccc(C)cc1 (stereo not given)",
    "TARGET_UNDER_TEST": "SNB-75 CNS",
    "ASSAY_ENDPOINT": "TGI",
    "ASSAY_RESULT": "> 100 µM"
  },
  {
    "COMPOUND": "CCCCCCCCCCN=C(c1ccc(N(C)C)cc1)c1ccc(N(C)C)cc1",
    "TARGET_UNDER_TEST": "SNB-75 CNS",
    "ASSAY_ENDPOINT": "TGI",
    "ASSAY_RESULT": "6.69 µM"
  },
  {
    "COMPOUND": "COc1ccc2cc(-c3ccc(-c4ccc(C(=N)N)s4)s3)ccc2c1",
    "TARGET_UNDER_TEST": "SNB-75 CNS",
    "ASSAY_ENDPOINT": "TGI",
    "ASSAY_RESULT": "26.6 µM"
  }
]

API: the following record is the query input.
Request: Looking for the measured TGI of COc1cc2c(cc1-c1c(C)noc1C)cc(C)c(=O)n2Cc1ccccn1 , can you help?
Response: 0.456 µM
